Parameter: melting point

C=CC(=O)N(CC)c1cn(-c2cccnc2)nc1Cl : 67 to 68 °C

Record Cc1ccccc1C(=O)CN1C(=O)C(NC(=O)c2cc3ccccc3[nH]2)N=C(C2CCCCC2)c2cccc(C)c21 (racemic) . Reported melting point: 127 to 145 °C

Record CC(C)(C)[Si](C)(C)OC1CC=C(c2ccc(NC(=O)OCc3ccccc3)c(F)c2)CC1 (centres undefined) . Reported melting point: 116 to 119 °C

Record COc1cccc(C#Cc2ccncc2)c1 . Reported melting point: 33 to 35 °C

Record O=c1ccoc(C(O)c2ccc3ccccc3c2)c1OCc1ccccc1 (centres undefined) . Reported melting point: 159 to 160 °C

Record O=C(O)c1cccc(COc2ccccc2Cl)c1COc1ccccc1Cl . Reported melting point: 107 to 109 °C

Record O=C(O)CCCC#CCN1C(=O)c2ccccc2C1=O . Reported melting point: 120 to 122 °C

Record CCOC(=O)c1cn(CC)c2nc(N3CCN(CCO)CC3)ncc2c1=O . Reported melting point: 172 °C

Record COc1ccc2c(c1)c1c3c(c(-c4ccccc4Cl)cc1n2CCC#N)C(=O)NC3=O . Reported melting point: 287 to 288 °C

Where do the numbers come from? From a melting point compilation (Tetko et al.; mined from patent text by program, amines drawn as free bases though some values may be those of a salt).
